- System: MCF7
- method summary: NCI tumour cell line growth inhibition, 48 h
Active and inactive are the calls of the source. No stated cut-off is given here; in the data, active = GI50 up to about 1.1 µM and inactive = higher.

[
  {
    "compound": "C[N+]1(C(CO)Cc2c[nH]c3ccccc23)Cc2ccccc2C1 (configuration not stated)",
    "GI50": "> 100 µM (inactive)"
  },
  {
    "compound": "O=C1/C(=c2\\c3ccccc3n3c(=O)c4ccccc4nc23)Nc2ccccc21 [CANDIDINE]",
    "GI50": "> 70.1 µM (inactive)"
  },
  {
    "compound": "Cc1nc(Nc2ccc(Cl)cc2Cl)sc1C(=O)Nc1ccccc1",
    "GI50": "36 µM (inactive)"
  },
  {
    "compound": "CCOC(=O)Cc1csc(NC(NC(=O)OCC)(C(=O)OCC)C(F)(F)F)n1 (configuration not stated)",
    "GI50": "> 100 µM (inactive)"
  },
  {
    "compound": "COc1ccc2c(c1)CCCN1Cc3cc(OC)c(OC)cc3CC21 (configuration not stated)",
    "GI50": "> 100 µM (inactive)"
  },
  {
    "compound": "O=C1c2ccccc2C(=O)c2c1c1cc(O)ccc1n2Cc1ccc(Cl)cc1Cl",
    "GI50": "4.11 µM (inactive)"
  },
  {
    "compound": "COc1nc2c(c(=O)[nH]1)N=C(c1ccc(Cl)cc1)CC(c1ccccc1)N2 (configuration not stated)",
    "GI50": "39 µM (inactive)"
  },
  {
    "compound": "COC(=O)c1c2c(cc3c1CC1(Cc4cc5c(c(C=O)c4C1)CCC5)C3)CCC2 (configuration not stated)",
    "GI50": "42 µM (inactive)"
  },
  {
    "compound": "C[C@]12CCC3c4ccc(O)cc4CC[C@H]3C1CC(=O)N(CCN1CCCC1)C2=O (some centres not stated)",
    "GI50": "> 10 µM (inactive)"
  },
  {
    "compound": "CC(=O)C(C(C)=O)=C1CCCC(O)O1 (configuration not stated)",
    "GI50": "> 100 µM (inactive)"
  },
  {
    "compound": "OC(C#CCN1CCCC1)(c1ccccc1)c1ccccc1Cl (configuration not stated)",
    "GI50": "17.9 µM (inactive)"
  },
  {
    "compound": "Cc1cc(O)c2c(c1)C(=O)c1c(c(O)cc(O)c1-c1c(O)cc(O)c3c1C(=O)c1cc(C)cc(O)c1C3=O)C2=O [SKYRIN]",
    "GI50": "15 µM (inactive)"
  }
]

// data source = ChEMBL document CHEMBL1201862
